Cited source: paper PMC7073229

Counter-ions that a name gives are not always drawn.
property-measured: melting point

A selection of reference data follows.
Cc1cc(Nc2cccc(C(=O)Nc3cccc(Nc4ccnc5ccccc45)c3)c2)nc(N)n1
227 to 229 °C
Cc1cc(Nc2cccc(NC(=O)c3cccc(CNc4ccnc5ccccc45)c3)c2)nc(N)n1
153 to 155 °C
Cc1cc(NCc2cccc(NC(=O)c3cccc(Nc4ccnc5ccccc45)c3)c2)nc(N)n1
260 to 262 °C
Cc1cc(Nc2cccc(NCc3cccc(Nc4ccnc5ccccc45)c3)c2)nc(N)n1
98 to 100 °C
Cc1cc(Nc2ccc(NC(=O)c3cccc(Nc4cc(C)nc(N)n4)c3)cc2)nc(N)n1
218 to 220 °C

# get_value(readout='melting point', item= Cc1cc(Nc2cccc(CNC(=O)c3cccc(Nc4ccnc5ccccc45)c3)c2)nc(N)n1 (as salt: hydrochloride) )
183 to 185 °C

Proceed to `Cc1cc(Nc2cccc(NC(=O)c3cccc(Nc4cc(C)nc(N)n4)c3)c2)nc(N)n1`
105 to 107 °C

Now consider `Cc1cc(Nc2ccc(C(=O)Nc3cccc(Nc4cc(C)nc(N)n4)c3)cc2)nc(N)n1` .
292 to 294 °C

Same read-out for `Cc1cc(Nc2cccc(NC(=O)Cc3cccc(Nc4ccnc5ccccc45)c3)c2)nc(N)n1` ?
163 to 165 °C
